# Test system: T47D
# protocolDetails: Antiproliferative activity against human T47D cells incubated for 48 hrs by MTT assay
# Assay type: functional, cell-based
pIC50: −log10 of the molar value.
measureName: pIC50

Take a look at these entries with their results.
smilesData: O=C(Nc1ccc(Cl)c(Cl)c1)Nc1nnc(Sc2ncnc3scc(-c4ccncc4)c23)s1
studySystem: T47D
reportedResult: 4.84
//
smilesData: Cc1ccc(NC(=O)Nc2nnc(Sc3ncnc4scc(-c5ccncc5)c34)s2)cc1Cl
studySystem: T47D
reportedResult: 4.46

P: CNC(=O)c1cc(Oc2ccc(NC(=O)Nc3ccc(Cl)c(C(F)(F)F)c3)cc2)ccn1
Q: O=C(Nc1cccc(C(F)(F)F)c1)Nc1nnc(Sc2ncnc3scc(-c4ccncc4)c23)s1
R: Cc1ccc(NC(=O)Nc2nnc(Sc3ncnc4scc(-c5ccncc5)c34)s2)cc1
Task item: Ascending sort, pIC50. List the labels according to the requested ordering.
Reply: Q, R, P
(Q: 4.35, R: 4.75, P: 5.19)

----------
# System: PC-3
# protocolDetails: Antiproliferative activity against human PC-3 cells incubated for 48 hrs by MTT assay
# Format: functional, cell-based
# runConditions: PC-3, 48 h
pIC50: −log10 of the molar value.
measureName: pIC50

Take a look at these entries with their results.
molecule: Cc1ccc(NC(=O)Nc2nnc(Sc3ncnc4scc(-c5ccncc5)c34)s2)cc1Cl
measureName: pIC50
reportedResult: 5.33

molecule: COc1ccc(NC(=O)Nc2nnc(Sc3ncnc4scc(-c5ccncc5)c34)s2)cc1
measureName: pIC50
reportedResult: 5.00

a: O=C(Nc1ccc(Cl)c(C(F)(F)F)c1)Nc1nnc(Sc2ncnc3scc(-c4ccncc4)c23)s1
b: O=C(Nc1ccc(Cl)c(Cl)c1)Nc1nnc(Sc2ncnc3scc(-c4ccncc4)c23)s1
Task item: Please indicate which item has the smaller measured pIC50: a versus b Please indicate the selected item by its label.
Reply: a

I: O=C(Nc1cccc(C(F)(F)F)c1)Nc1nnc(Sc2ncnc3scc(-c4ccncc4)c23)s1
II: COc1cccc(NC(=O)Nc2nnc(Sc3ncnc4scc(-c5ccncc5)c34)s2)c1
III: O=C(Nc1ccc(F)cc1)Nc1nnc(Sc2ncnc3scc(-c4ccncc4)c23)s1
Task item: Order these by pIC50, descending, and give the full ranking. List the labels according to the requested ordering.
Reply: III, II, I
(III: 6.01, II: 5.17, I: 4.94)

----------
# System: T47D
# protocolDetails: Antiproliferative activity against human T47D cells incubated for 48 hrs by MTT assay
# Type: functional, cell-based
measureName: IC50 (µM)

smilesData: O=C(Nc1ccc(Cl)cc1)Nc1nnc(Sc2ncnc3scc(-c4ccncc4)c23)s1
reportedResult: 23.3

a: O=C(Nc1cccc(Cl)c1)Nc1nnc(Sc2ncnc3scc(-c4ccncc4)c23)s1
b: Cc1cccc(NC(=O)Nc2nnc(Sc3ncnc4scc(-c5ccncc5)c34)s2)c1
Task item: Pick one: a or b . Which has the bigger IC50 number? Please indicate the selected item by its label.
Reply: a

1: O=C(Nc1ccc(Cl)c(C(F)(F)F)c1)Nc1nnc(Sc2ncnc3scc(-c4ccncc4)c23)s1
2: O=C(Nc1cccc(F)c1)Nc1nnc(Sc2ncnc3scc(-c4ccncc4)c23)s1
Task item: Pick one: 1 or 2 . Which has the bigger IC50 number? Please indicate the selected item by its label.
Reply: 1

I: O=C(Nc1ccccc1)Nc1nnc(Sc2ncnc3scc(-c4ccncc4)c23)s1
II: COc1cccc(NC(=O)Nc2nnc(Sc3ncnc4scc(-c5ccncc5)c34)s2)c1
Task item: Please indicate which item has the smaller measured IC50: I versus II Please indicate the selected item by its label.
Reply: I
